Test: In vitro human skin penetration (Franz diffusion chamber)
Assay type: in vitro ADME
Settings: 0.03% in Formulation A, Franz chamber, dosed compound
Below, each entry is listed with its recorded Percentage Dose Applied, Receptor Chamber Solution, Prodrug.
Write the number in Percentage Dose Applied without appending the unit.

Reference set (3 entries):
[[record]]
smiles_code = "CCNC(=O)CCC/C=C\\C[C@@H]1[C@@H](/C=C/[C@@H](O)CCc2ccccc2)[C@H](O)C[C@@H]1O"
units_of_measure = "Percentage Dose Applied"
val = 1.1

[[record]]
smiles_code = "CCNC(=O)CCC/C=C\\C[C@@H]1[C@@H](/C=C/[C@@H](O)CCc2ccccc2)[C@H](OC(=O)CC)C[C@@H]1O"
units_of_measure = "Percentage Dose Applied"
val = 0.8

[[record]]
smiles_code = "CCNC(=O)CCC/C=C\\C[C@@H]1[C@@H](/C=C/[C@H](CCc2ccccc2)OC(C)=O)[C@H](O)C[C@@H]1O"
units_of_measure = "Percentage Dose Applied"
val = 4.3


Prompt: Dear colleague, I am looking for the recorded Percentage Dose Applied, Receptor Chamber Solution, Prodrug of the following compound: CCNC(=O)CCC/C=C\C[C@@H]1[C@@H](/C=C/[C@H](CCc2ccccc2)OC(=O)CC)[C@H](O)C[C@@H]1O
Completion: 2.1
